// values below are reported IC50
Assay: Tested in vitro for cytotoxicity against the monkey kidney cells (BSC-1 cells).
Type: functional, cell-based
Conditions: Cercopithecidae

Quick one: IC50 of Nc1nc2c(ncn2COCCO)c(=O)[nH]1 [ACYCLOVIR] ? > 100 µM

Query N#Cc1cn([C@@H]2O[C@H](CO)[C@@H](O)[C@@H]2Br)c2ncnc(N)c12 next > 100 µM

Query NC(=O)c1cn([C@@H]2O[C@H](CO)[C@@H](O)[C@@H]2Cl)c2ncnc(N)c12 next > 100 µM

###

Tested on: Human betaherpesvirus 5
Assay: Tested for visual cytotoxicity against the human cytomegalovirus (HCMV) cell lines in human foreskin fibroblasts
Format: functional, organism-based
pIC50: −log10 of the molar value.
assay endpoint: pIC50

Quick one: pIC50 of N#Cc1cn([C@@H]2O[C@H](CO)[C@@H](O)[C@@H]2N)c2ncnc(N)c12 ? < 4.00

###

Tested on: Human alphaherpesvirus 1
Experiment: Tested for activity against the rabbit kidney herpes simplex virus-1 (HSV-1) cell lines
Type: functional, organism-based
assay endpoint: IC50 (µM)
Reply numerically in µM, unit not repeated.

Quick one: IC50 of N#Cc1cn([C@@H]2O[C@H](CO)[C@@H](O)[C@@H]2N)c2ncnc(N)c12 ? 117

###

// values below are reported IC50
Test: Tested in vitro for cytotoxicity against the human neoplastic cell line (KB cells).
Format: functional, cell-based
Reply numerically in µM, unit not repeated.

The examples below pair each entry with its known result.
- query smiles: "N#Cc1cn([C@@H]2O[C@H](CO)[C@@H](O)[C@@H]2N)c2ncnc(N)c12"
  numeric result: 105
- query smiles: "[N-]=[N+]=N[C@H]1[C@H](O)[C@@H](CO)O[C@H]1n1cc(C(N)=O)c2c(N)ncnc21"
  numeric result: 179

As a next step, examine the compound that follows.
Quick one: IC50 of N#Cc1cn([C@@H]2O[C@H](CO)[C@@H](O)[C@@H]2N=[N+]=[N-])c2ncnc(N)c12 ? 151

###

Test: Tested in vitro for cytotoxicity against the monkey kidney cells (BSC-1 cells).
Assay type: functional, cell-based
Settings: Cercopithecidae
assay endpoint: IC50

The examples below pair each entry with its known result.
- query smiles: "N#Cc1cn([C@@H]2O[C@H](CO)[C@@H](O)[C@@H]2N=[N+]=[N-])c2ncnc(N)c12"
  IC50: "> 100 µM"
- query smiles: "NC(=O)c1cn([C@@H]2O[C@H](CO)[C@@H](O)[C@@H]2Br)c2ncnc(N)c12"
  IC50: "> 100 µM"

Quick one: IC50 of Nc1nc2c(ncn2COC(CO)CO)c(=O)[nH]1 ? > 100 µM

###

Test system: Human alphaherpesvirus 1
Assay: Tested for visual cytotoxicity against rabbit kidney herpes simplex virus-1 (HSV-1) cell lines
Assay type: functional, organism-based
assay endpoint: IC50
Give the figure together with its unit, number first.

Write down the reported IC50 of N#Cc1cn([C@@H]2O[C@H](CO)[C@@H](O)[C@@H]2N)c2ncnc(N)c12 , test system: Human alphaherpesvirus 1. 350 µM

###

Assay: Tested in vitro for cytotoxicity against the human neoplastic cell line (KB cells).
Assay type: functional, cell-based
pIC50: −log10 of the molar value.
assay endpoint: pIC50

The examples below pair each entry with its known result.
- query smiles: "Nc1nc2c(ncn2COC(CO)CO)c(=O)[nH]1"
  pIC50: "< 4.00"
- query smiles: "NC(=O)c1cn([C@@H]2O[C@H](CO)[C@@H](O)[C@@H]2N)c2ncnc(N)c12"
  pIC50: "< 4.00"

Quick one: pIC50 of Nc1nc2c(ncn2COCCO)c(=O)[nH]1 ? < 4.00
